procedure.details: Quantitative High-Throughput drug screen in 47 multiple myeloma cell lines against the NCATS MIPE library collection: Karpas25_ECACC cell viability assay (AID 1918968; note: nearly all actives have a fitted effect of over 35% in size)
condition.context: Karpas25 myeloma viability, CellTiter-Glo ATP, 48 h; series mostly up to 45.8 µM
Results filed as inconclusive are left out. Active and inactive are the calls of the source. Calls come from the whole dose curve; as a rule, active = well fitted cell-killing curve with a large enough effect; inconclusive = small, poorly fitted or top-dose-only effect, or effect the other way; inactive = no such curve, though single readings can be large or run the other way.
I would appreciate it if you answered using one of these outcomes: active, inactive

The examples below pair each entry with its known result.
Answer briefly: the call reported for CC(=NNC(=S)N1CCC1)c1ccccn1 in this assay.
inactive

Could you do the same for CCNc1cc(NC2CCC(O)CC2)nc(Nc2ccc3c(ccn3Cc3ccccc3)c2)n1 (stereo not drawn) , please?
active

More entries:
Answer briefly: the call reported for CC1(C)CCC[C@@]2(C)[C@@H]1CC[C@@]1(C)OC(=O)C[C@H]21 in this assay.
inactive

* * *

assayed.system: Nuclear receptor ROR-gamma (Homo sapiens)
procedure.details: qHTS assay for small molecule antagonists of the retinoid-related orphan receptor gamma (ROR-gamma) signaling pathway (AID 651802); note: nearly all actives have a fitted effect of over 60% in size
condition.context: ROR-gamma antagonist cell reporter assay; series mostly up to 92.2 µM
Results filed as inconclusive are left out. Calls of active or inactive are those of the source. Calls come from the whole dose curve; as a rule, active = well fitted inhibition curve with a large enough effect; inconclusive = small, poorly fitted or top-dose-only effect; inactive = no such curve, though single readings can be large or run the other way.
I would appreciate it if you answered using one of these outcomes: active, inactive

Answer briefly: the call reported for CC1=C(/C=C/C(C)=C/C=C/C(C)=C/C(=O)Nc2ccc(O)cc2)C(C)(C)CCC1 in this assay.
active

Could you do the same for O=c1c(-c2ccc(O)cc2)coc2cc(O)ccc12 , please?
inactive

Could you do the same for CC/C(=C(\c1ccccc1)c1ccc(OCCN(C)C)cc1)c1ccccc1 , please?
active

* * *

procedure.details: Quantitative High-Throughput drug screen in 47 multiple myeloma cell lines against the NCATS MIPE library collection: JIM3_ECACC cell viability assay (AID 1918963;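 note: 100% = DMSO-only wells and 0% = media-only wells without cells; nearly all actives have a fitted effect of over 35% in size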)
condition.context: JIM3 myeloma viability, CellTiter-Glo ATP, 48 h; series mostly up to 45.8 µM
Description: PI: Beverly A. Mock Ph.D. Laboratory of Cancer Biology and Genetics, Center for Cancer Research, National Cancer Institute, National Institute of Health, Bethesda, Maryland […] 5; Detector; 425V; Luminescence; Viewlux PerkinElmer. […] 1. […] Briefly, the corresponding myeloma cell lines were screened in 1,536-well plates with 500 cells, 5-uL per well for inhibition of cell viability (assessed by measuring ATP levels with CellTiterGlo). […]
Results filed as inconclusive are left out. Calls of active or inactive are those of the source. Calls come from the whole dose curve; as a rule, active = well fitted cell-killing curve with a large enough effect; inconclusive = small, poorly fitted or top-dose-only effect; inactive = no such curve, though single readings can be large or run the other way.
I would appreciate it if you answered using one of these outcomes: 1 = active, -1 = inactive

Answer briefly: the call reported for N#Cc1ccc(NC(=O)Nc2ccccc2Br)c2n[nH]nc12 in this assay.
-1

Could you do the same for CC=CC(=O)N(CC)c1ccccc1C , please?
-1

Could you do the same for CN1C[C@H]2c3ccccc3Oc3ccc(Cl)cc3[C@@H]2C1 , please?
-1

* * *

procedure.details: qHTS of pediatric cancer cell lines to identify multiple opportunities for drug repurposing: Primary screen for Rh41 cells (AID 1347108); note: nearly all actives have a fitted effect of over 70% in size
condition.context: Rh41 rhabdomyosarcoma viability, CellTiter-Glo luminescence, 48 h; series mostly up to 46 µM
Description: Drug repurposing or repositioning has been offered as a strategy for drug development in oncology programs. This approach has special potential for childhood cancers and other rare or orphan diseases, where the expected return on new drug development has been a disincentive to pharmaceuticals. […] We employed a titration-based paradigm (quantitative high-throughput screening or qHTS), where all compounds were tested at multiple concentrations for their effect on cell viability. […]
Results filed as inconclusive are left out. Calls of active or inactive are those of the source. Calls come from the whole dose curve; as a rule, active = well fitted cell-killing curve with a large enough effect; inconclusive = small, poorly fitted or top-dose-only effect; inactive = no such curve, though single readings can be large or run the other way.
I would appreciate it if you answered using one of these outcomes: active, inactive

Answer briefly: the call reported for Cc1nnc(C(C)C)n1C1C[C@H]2CC[C@@H](C1)N2CC[C@H](NC(=O)C1CCC(F)(F)CC1)c1ccccc1 (stereo partly specified) in this assay.
inactive

Could you do the same for COc1ccc(-c2coc3cc(O)ccc3c2=O)cc1 , please?
inactive

Could you do the same for COCCCCC(=NOCCN)c1ccc(C(F)(F)F)cc1 , please?
active

Could you do the same for Cc1ccc(C(C)(O)c2nc3ccccc3s2)c(C)c1 (stereo unspecified) , please?
inactive

Could you do the same for CC=CCC=CCCC(=O)[C@H]1O[C@@H]1C(N)=O , please?
inactive

Could you do the same for Cc1c[nH]c(C=C2C(=O)Nc3ccccc32)c1CCC(=O)O , please?
inactive

Could you do the same for CO[C@H]1C(=O)[C@]2(C)[C@@H](OC)C[C@H]3OC[C@@]3(OC(C)=O)[C@H]2[C@H](OC(=O)c2ccccc2)[C@]2(O)C[C@H](OC(=O)[C@H](O)[C@@H](NC(=O)OC(C)(C)C)c3ccccc3)C(C)=C1C2(C)C , please?
active

Could you do the same for O=C(NC1CCOCC1)c1ccc(-c2cc(-c3cn[nH]c3-c3ccccn3)ccn2)cc1 , please?
inactive

Could you do the same for CN1C[C@H]2c3ccccc3Oc3ccc(Cl)cc3[C@@H]2C1 , please?
inactive

Could you do the same for COc1ccc(C2CC(c3ccccc3)=NN2c2ccc(S(N)(=O)=O)cc2)cc1 (stereo unspecified) , please?
inactive

Could you do the same for N#C[C@H]1C[C@H]2C[C@@H]2N1C(=O)[C@@H](N)C12CC3CC(CC(O)(C3)C1)C2 , please?
inactive

Could you do the same for CCN1CCC[C@H]1CNC(=O)c1cc(S(N)(=O)=O)ccc1OC , please?
inactive

Could you do the same for O=C1NC(=O)C(=Cc2ccc3nccnc3c2)S1 , please?
inactive

Could you do the same for C[N+](C)(C)CCCCCC[N+](C)(C)C , please?
inactive

Could you do the same for OC[C@@H](O)[C@H](O)[C@H](O)[C@@H](O)CO , please?
inactive

* * *

System: Zika virus NS2B-NS3 protease (unlinked)
procedure.details: Optimization of GU AMC qHTS for Zika virus inhibitors: Unlinked NS2B-NS3 protease assay (AID 1347151);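 note: 0% = no-inhibitor control and -100% = no-enzyme control; nearly all actives have a fitted effect of over 80% in size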
condition.context: recombinant ZIKV NS2B-NS3 protease, fluorogenic AMC substrate; series mostly up to 52.5 µM
Records with an inconclusive call do not appear. Active and inactive are the calls of the source. Calls come from the whole dose curve; as a rule, active = well fitted inhibition curve with a large enough effect; inconclusive = small, poorly fitted or top-dose-only effect; inactive = no such curve, though single readings can be large or run the other way.
I would appreciate it if you answered using one of these outcomes: True = active, False = inactive

Answer briefly: the call reported for COc1ccccc1N1CCN(CCCNc2cc(=O)n(C)c(=O)n2C)CC1 in this assay.
False

Could you do the same for O=C(NCCN1CCOCC1)c1ccc(Cl)cc1 , please?
False

Could you do the same for CCN(CC)CCOC(=O)c1ccc(N)cc1 , please?
False

More entries:
Answer briefly: the call reported for Cc1cccc(C)c1OCC(C)N (centres undefined) in this assay.
False

Could you do the same for CC(=O)CCCCn1c(=O)c2c(ncn2C)n(C)c1=O , please?
False

Could you do the same for COC(=O)[C@@H]1[C@H]2C[C@H]3c4[nH]c5ccccc5c4CCN3C[C@@H]2CC[C@@H]1O , please?
False

* * *

System: ATS189
procedure.details: qHTS profiling for inhibitors of Plasmodium falciparum proliferation (AID 504749);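 note: 0% = DMSO vehicle and full inhibition = artemisinin control; nearly all actives have a fitted effect of over 60% in size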
condition.context: P. falciparum in erythrocytes, SYBR Green DNA, 72 h; series mostly up to 28.7 µM
Records with an inconclusive call do not appear. Activity calls are given as the source filed them. Calls come from the whole dose curve; as a rule, active = well fitted inhibition curve with a large enough effect; inconclusive = small, poorly fitted or top-dose-only effect; inactive = flat fitted curve, though single readings scatter.
I would appreciate it if you answered using one of these outcomes: True for active, False for inactive

The examples below pair each entry with its known result.
Answer briefly: the call reported for CCCCCN(C)CCC(O)(P(=O)(O)O)P(=O)(O)O in this assay.
False

Could you do the same for CCN1CCC[C@H]1CNC(=O)c1cc(S(N)(=O)=O)ccc1OC , please?
False

Could you do the same for CC(=O)CCCCn1c(=O)c2c(ncn2C)n(C)c1=O , please?
False

Could you do the same for Cc1cnc(C(=O)O)c[n+]1[O-] , please?
False

Could you do the same for Clc1ccc(Cn2c(CN3CCCC3)nc3ccccc32)cc1 , please?
False

More entries:
Answer briefly: the call reported for O=c1[nH]cnc2c1ncn2[C@H]1CC[C@@H](CO)O1 in this assay.
False

Could you do the same for CCN(CC)CCNC(=O)c1ccc(N)cc1 , please?
False

* * *

procedure.details: qHTS of pediatric cancer cell lines to identify multiple opportunities for drug repurposing: Primary screen for RD cells (AID 1347104); note: nearly all actives have a fitted effect of over 55% in size; note: potency is the fitted concentration of half-maximal effect
condition.context: RD rhabdomyosarcoma viability, CellTiter-Glo luminescence, 48 h; series mostly up to 46 µM
Records with an inconclusive call do not appear. Calls of active or inactive are those of the source. The call rests on the fitted dose curve; in most records, active means well fitted cell-killing curve with a large enough effect; inconclusive means small, poorly fitted or top-dose-only effect; inactive means flat fitted curve, though single readings scatter.
observation.type: Potency

Some compounds with recorded Potency:
Param item = CO[C@H]1C[C@@H]2CC[C@@H](C)[C@@](O)(O2)C(=O)C(=O)N2CCCC[C@@H]2C(=O)O[C@H]([C@@H](C)C[C@@H]2CC[C@H](O)[C@H](OC)C2)CC(=O)[C@H](C)C=C(C)[C@@H](O)[C@@H](OC)C(=O)[C@H](C)C[C@H](C)C=CC=CC=C1C ; retrieve measured Potency.
inactive

Could you do the same for Cn1c(N2CCCCS2(=O)=O)nc(C(=O)NCc2ccc(F)cc2)c(O)c1=O , please?
inactive

Could you do the same for COc1cccc2c1CCCC2CCCN1CCN(C2CCCCC2)CC1 (configuration not stated) , please?
26.4 µM (active)

Could you do the same for CC(C)C(=O)Oc1ccc(CO)cc1[C@H](CCN(C(C)C)C(C)C)c1ccccc1 , please?
inactive

More entries:
Param item = NC[C@@H]1O[C@@H](O[C@H]2[C@@H](O)[C@H](O[C@@H]3[C@@H](O)[C@@H](N)C[C@H](N)[C@H]3O[C@H]3O[C@H](CN)[C@@H](O)[C@@H](O)[C@H]3N)O[C@H]2CO)[C@H](N)[C@@H](O)[C@@H]1O ; retrieve measured Potency.
inactive

Could you do the same for NC(=O)NN=Cc1ccc([N+](=O)[O-])o1 , please?
inactive

Could you do the same for CC(=O)N[C@@H](CS)C(=O)O , please?
inactive
